- Tested on: MCF10A
- ASSAY_EXPLANATION: one-nucleolus phenotype percent effect (relative to siNT 0% and siNOL11 100%); higher = more cells with one nucleolus (ribosome biogenesis inhibition)
- TEST_PARAMETERS: 20 nM; 72 h
MEASURED_PROPERTY: one-nucleolus phenotype percent effect (%)

• CUCAGUAGCCAGUGUAGAUCCU [hsa-miR-222-5p] = 14
• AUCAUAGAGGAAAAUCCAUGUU [hsa-miR-376b-3p] = -20.4
• AGGUUGUCCGUGGUGAGUUCGCA [hsa-miR-323b-5p] = -5.61
• UCAGCACCAGGAUAUUGUUGGAG [hsa-miR-3065-3p] = -25.2
• UUCACAGUGGCUAAGUUCCGC [hsa-miR-27a-3p] = -7.64
• UUGCAUAGUCACAAAAGUGAUC [hsa-miR-153] = -31.1
• CUUGGAUUUUCCUGGGCCUCAG [hsa-miR-5004-3p] = 4.88
• AAUAAUAUCACAGUAGGUGUAC [hsa-miR-5692c] = -21.3
• GUGAGUGGGAGCCGGUGGGGCUG [hsa-miR-4758-5p] = -17.7
• UCCUGCCUUCCUCUGCACCAG [hsa-miR-6747-3p] = 16
• CCCCUGGGGCUGGGCAGGCGGA [hsa-miR-6791-5p] = -13.7
• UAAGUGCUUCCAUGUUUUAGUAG [hsa-miR-302b-3p] = -12.2
• CGAAUCAUUAUUUGCUGCUCUA [hsa-miR-15b-3p] = -19.7
• AGGGGACUGGUUAAUAGAACUA [hsa-miR-4652-5p] = 47.2
• UGAGCCGAGCUGAGCUUAGCUG [hsa-miR-4537] = -6.98
• CAGGCAGGUGUAGGGUGGAGC [hsa-miR-6893-5p] = -3.82
• ACAUUGCCAGGGAGUUU [hsa-miR-4317] = -2.43
• GGACCCACCCGGCCGGGAAUA [hsa-miR-1180-5p] = -33.8
• UUCUGAGCUGAGGACAG [hsa-miR-4303] = -2.54

====

- Tested on: MCF10A
- ASSAY_EXPLANATION: one-nucleolus phenotype percent effect (relative to siNT 0% and siNOL11 100%); higher = more cells with one nucleolus (ribosome biogenesis inhibition)
- TEST_PARAMETERS: 20 nM; 72 h
Rule: one-nucleolus phenotype percent effect of -10% or more gives condition met; anything lower gives condition not met.

* GUAGAGGAGAUGGCGCAGGG [hsa-miR-877-5p] | condition met
* GCACCCAGGCAAGGAUUCUG [hsa-miR-500b-3p] | condition met
* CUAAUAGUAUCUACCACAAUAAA [hsa-miR-633] | condition not met
* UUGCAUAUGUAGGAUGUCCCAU [hsa-miR-448] | condition met
* GUGGACCAGGAUGGCAAGGGCU [hsa-miR-4776-5p] | condition met
* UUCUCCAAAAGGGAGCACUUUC [hsa-miR-519e-5p] | condition met
* UGAUCUCACCGCUGCCUCCUUC [hsa-miR-4695-3p] | condition met
* AGGCCCUGUCCUCUGCCCCAG [hsa-miR-6775-3p] | condition met
* UUGGCCACCACACCUACCCCUU [hsa-miR-4701-5p] | condition met
* UCACAAAUCUAUAAUAUGCAGG [hsa-miR-4719] | condition not met
* UGAGAGUGGAAUUCACAGUAUUU [hsa-miR-4693-3p] | condition met
* UGGAAUGUAAAGAAGUAUGUAU [hsa-miR-1] | condition met
* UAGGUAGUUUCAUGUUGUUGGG [hsa-miR-196a-5p] | condition not met
* AGGAGGGAGGAGAUGGGCCAAGUU [hsa-miR-1249-5p] | condition met
* CUAUGGCGAGACUGGCAUGUACUC [hsa-miR-8074] | condition not met
* UUUCUGUCUUUUCUGGUCCAG [hsa-miR-4743-3p] | condition met
* CUAUACGACCUGCUGCCUUUCU [hsa-let-7d-3p] | condition not met
* UCUCUUCAUCUACCCCCCAG [hsa-miR-6515-3p] | condition met
* AUUAGGUAGUGGCAGUGGAAC [hsa-miR-6509-5p] | condition not met
* UGGAAGACUAGUGAUUUUGUUGU [hsa-miR-7-5p] | condition met
